# target entity: Syk kinase (Homo sapiens)
# Construct: purchased
# experiment: Syk kinase inhibition, Caliper LabChip off-chip mobility-shift kinase assay
# Type: biochemical
# assay setup: Caliper LabChip assay; read-out: Syk Enzyme IC50
pIC50: −log10 of the molar value.
reported property: pIC50

In [3]: df
Out[3]:
                         compound_structure  readout_value
0  Nc1ncc(-c2cc3ccn(CCN4CCOCC4)c(=O)c3c(N[C@H]3CC[C@@H](O)CC3)n2)cn1           7.14
1  Cc1ccnc(Nc2cc3ccn(CCCO)c(=O)c3c(N[C@H]3CC[C@@H](O)CC3)n2)c1           7.72
2  CC(C)Nc1nc(Nc2cc(N3CCC(O)CC3)ccn2)cc2ccn(CCO)c(=O)c12           6.52
3  C=Cc1cc(Nc2cc3ccn(CCO)c(=O)c3c(NC(C)(C)C)n2)ncn1           6.92
4  CC(C)(C)Nc1nc(Nc2cc(-c3ccccc3)ccn2)cc2ccn(CCO)c(=O)c12           6.57
5  CC(C)(C)Nc1nc(-c2cnc(N)nc2)cc2ccn(C3COC3)c(=O)c12           7.68
6  NC(=O)Cn1ccc2cc(-c3cnc(N)nc3)nc(NC3CCOCC3)c2c1=O           7.62
7  CC(C)(C)Nc1nc(Nc2cc(C3(CO)CC3)ccn2)cc2ccn(CCO)c(=O)c12           7.55

* * *

# target entity: Syk kinase (Homo sapiens, UniProt P43405)
# Construct: purchased
# experiment: Syk kinase inhibition, Caliper LabChip off-chip mobility-shift kinase assay
# Format: biochemical
# assay setup: Caliper LabChip assay; read-out: Syk Enzyme IC50
pIC50: −log10 of the molar value.
Returns one of Satisfied or Not satisfied; Satisfied when pIC50 is >= 7.

                                   compound                             target_entity  assigned_class
0  CC(C)(C)Nc1nc(Nc2cnccn2)c(Cl)c2ccn(CCO)c(=O)c12  Syk kinase (Homo sapiens, UniProt P43405)   Not satisfied
1   O=c1[nH]ccc2cc(Nc3cnccn3)nc(NC3CCC3)c12  Syk kinase (Homo sapiens, UniProt P43405)       Satisfied
2  CC(C)(C)Nc1nc(Nc2cnccn2)cc2ccn(Cc3ccccn3)c(=O)c12  Syk kinase (Homo sapiens, UniProt P43405)   Not satisfied
3  Cn1ccc2cc(Nc3nccc(O)n3)nc(Nc3ccc(C(=O)N4CCOCC4)cc3)c2c1=O  Syk kinase (Homo sapiens, UniProt P43405)   Not satisfied
4  CCn1ccc2cc(Nc3cnccn3)nc(NC3CCC(C)(O)CC3)c2c1=O (stereo not shown)  Syk kinase (Homo sapiens, UniProt P43405)       Satisfied

* * *

# target entity: Syk kinase (Homo sapiens)
# Construct: purchased
# experiment: Syk kinase inhibition, Caliper LabChip off-chip mobility-shift kinase assay
# Format: biochemical
# assay setup: read-out: Syk Enzyme IC50
reported property: log10(IC50) (log10 of the value in nM)

In [3]: df
Out[3]:
                                    compound              target_entity  readout_value
 0  Cc1ccnc(Nc2cc3ccn(C)c(=O)c3c(NC3CC3)n2)c1  Syk kinase (Homo sapiens)           2.11
 1  O=c1[nH]ccc2cc(C3CCNCC3)nc(Nc3ccc(N4CCOCC4)cc3)c12  Syk kinase (Homo sapiens)           2.40
 2  CCn1ccc2cc(Nc3cnccn3)nc(N[C@H]3CCC[C@@H]3O)c2c1=O  Syk kinase (Homo sapiens)           1.72
 3  CCOCC(=O)N1CCC(c2ccc(Nc3nc(-c4cncc(OC)n4)cc4cc[nH]c(=O)c34)cc2C)CC1  Syk kinase (Homo sapiens)           1.88
 4  Cn1ccc2cc(Nc3cnccn3)nc(Nc3ccc(C(=O)N4CCOCC4)cc3)c2c1=O  Syk kinase (Homo sapiens)           2.54
 5  Cc1ccnc(Nc2cc3cc[nH]c(=O)c3c(NCCCO)n2)c1  Syk kinase (Homo sapiens)           1.68
 6  O=C1CCC(c2ccc(Nc3nc(-c4cncnc4)cc4cc[nH]c(=O)c34)cc2)CC1  Syk kinase (Homo sapiens)           2.60
 7  [2H]C([2H])([2H])n1ccc2cc(Nc3cc(C)ccn3)nc(N[C@@H](C)CO)c2c1=O  Syk kinase (Homo sapiens)           1.66
 8  Cc1cc(Nc2nc(Nc3ccc(C#N)cn3)cc3cc[nH]c(=O)c23)ccc1N1CCO[C@H](C)C1  Syk kinase (Homo sapiens)           3.53
 9  O=c1[nH]ccc2cc(Nc3ccccn3)nc(NC3CCOCC3)c12  Syk kinase (Homo sapiens)           2.53
10  COCC(C)(C)C(=O)N1CCC(c2ccc(Nc3nc(-c4cncc(OC)n4)cc4cc[nH]c(=O)c34)cc2C)CC1  Syk kinase (Homo sapiens)           2.40
11  COc1cncc(-c2cc3cc[nH]c(=O)c3c(Nc3ccc(C4CCN(CCC(N)=O)CC4)c(C)c3)n2)n1  Syk kinase (Homo sapiens)           1.38
12  COc1cncc(-c2cc3cc[nH]c(=O)c3c(Nc3ccc(C4CCN(C(=O)C(O)C(C)C)CC4)c(C)c3)n2)n1 (stereo not drawn)  Syk kinase (Homo sapiens)           2.60
13  Cc1ccnc(Nc2cc3cc[nH]c(=O)c3c(NC3CNC3)n2)c1  Syk kinase (Homo sapiens)           3.19
14  COc1cncc(-c2cc3cc[nH]c(=O)c3c(Nc3ccc(C4CCN(C(C)C)CC4)c(C)c3)n2)n1  Syk kinase (Homo sapiens)           0.48
15  Cc1ccnc(Nc2cc3cc[nH]c(=O)c3c(NC3CCCC3)n2)c1  Syk kinase (Homo sapiens)           2.25
16  COc1cncc(-c2cc3cc[nH]c(=O)c3c(Nc3ccc(C4CCN(CCN(C)C)CC4)c(C)c3)n2)n1  Syk kinase (Homo sapiens)           1.52
17  C[C@@H]1CN(c2ccc(Nc3nc(-c4cncnc4)cc4cc[nH]c(=O)c34)cn2)C[C@H](C)O1  Syk kinase (Homo sapiens)           2.39
18  Cc1ccc(-c2cc3cc[nH]c(=O)c3c(Nc3ccc(CCN4CCNC(=O)C4)cc3)n2)cn1  Syk kinase (Homo sapiens)           2.07
19  NC(=O)c1ccnc(Nc2cc3cc[nH]c(=O)c3c(NC3CC3)n2)c1  Syk kinase (Homo sapiens)           2.47
20  CCN1CCN(CCc2ccc(Nc3nc(Nc4cc(C)ccn4)cc4cc[nH]c(=O)c34)cc2)CC1  Syk kinase (Homo sapiens)           1.91
